These measurements were taken from ChEMBL document CHEMBL1961873.

Tested on: Tyrosine-protein kinase ABL1 (Homo sapiens), P00519 [Y253F]
Settings: at 0.1 µM
parameterMeasured: inhibition (%)

>>> recordedmeasurement("FC(F)(F)c1ccc(-c2nn3ncccc3c2-c2ccnc(Nc3ccc4c(c3)OCCO4)n2)cc1")
0.98
>>> recordedmeasurement("NS(=O)(=O)c1ccc(NC=C2C(=O)Nc3ccc4ncsc4c32)cc1")
10.6
>>> recordedmeasurement("Nc1ccc(C#Cc2cncnc2Nc2ccc(OCc3cccc(F)c3)c(Cl)c2)cc1")
1.89
>>> recordedmeasurement("COc1cc2ncnc(Nc3ccc4c(cnn4Cc4ccccc4)c3)c2cc1OC")
2.86
>>> recordedmeasurement("Cc1ccc(C(=O)NC2CC2)cc1-c1ccc2[nH]ncc2c1")
-1.37
>>> recordedmeasurement("NS(=O)(=O)c1ccc(N/N=C2\\C(=O)Nc3ccc(Cl)cc32)cc1")
1.42
>>> recordedmeasurement("CS(=O)(=O)CCNCc1nc(-c2ccc3ncnc(Nc4ccc(OCc5cccc(C(F)(F)F)c5)cc4)c3c2)cs1")
1.32
>>> recordedmeasurement("COc1ccc2ncnc(Nc3ccc(OCc4ccccc4)cc3)c2c1")
2.03
>>> recordedmeasurement("CS(=O)(=O)Nc1cccc(-c2ccc3c(NC(=O)C4CC4)n[nH]c3c2)c1")
1.55
>>> recordedmeasurement("COc1cccc(-n2ncc3c(N/N=C/c4ccc(S(C)(=O)=O)cc4)ncnc32)c1")
86.2

----------
Molecular target: Tyrosine-protein kinase BTK (Homo sapiens);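 further: values are mean percent inhibition of BTK across replicate measurements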
Conditions: at 1 µM
parameterMeasured: inhibition

>>> recordedmeasurement("COC(=O)Nc1nc2cc(Oc3ccc(NC(=O)Nc4cccc(Br)c4)cc3)ccc2[nH]1")
"0.55%"
>>> recordedmeasurement("Cc1ccc2c(c1)/C(=N/Nc1ccc(S(N)(=O)=O)cc1)C(=O)N2")
"3.78%"
>>> recordedmeasurement("Nc1nccc(-c2c(-c3ccc(F)cc3)ncn2CCCN2CCOCC2)n1")
"-0.14%"
>>> recordedmeasurement("Nc1ccc(C#Cc2cncnc2Nc2ccc(OCc3cccc(F)c3)c(Cl)c2)cc1")
"1.11%"
>>> recordedmeasurement("COc1ccc2ncnc(Nc3ccc(OCc4ccccc4)cc3)c2c1")
"1.33%"
>>> recordedmeasurement("COc1cc2ncn(-c3cc(OCc4ccccc4S(C)(=O)=O)c(C#N)s3)c2cc1OC")
"11.8%"
>>> recordedmeasurement("CN1CCN(C(=O)c2ccc(NC(=O)Nc3ccc(N(C)c4ccnc(Nc5ccc(CS(C)(=O)=O)cc5)n4)cc3)cc2)CC1")
"16%"
>>> recordedmeasurement("COc1cc2ncnc(Nc3ccc(C)c(O)c3)c2cc1OC")
"15.9%"
>>> recordedmeasurement("CCOc1nccc2c1nc(-c1nonc1N)n2CC")
"2.44%"
>>> recordedmeasurement("N#Cc1cccc(Nc2nccc(-c3cnn4ncccc34)n2)c1")
"5.13%"
>>> recordedmeasurement("NS(=O)(=O)c1ccc(N/N=C2\\C(=O)Nc3ccc(Cl)cc32)cc1")
"0.56%"
>>> recordedmeasurement("Cc1cc(O)cc(C)c1/C=C/c1cncc(C(=O)N(C)C)c1")
"1.08%"
>>> recordedmeasurement("ON=C1CCc2cc(-c3nc(C4CCNCC4)[nH]c3-c3ccncc3)ccc21")
"3.08%"
>>> recordedmeasurement("COc1cc(/C=N/Nc2ncnc3c2cnn3C(C)C)ccc1O")
"0.84%"
>>> recordedmeasurement("CCS(=O)(=O)c1ccc(OC)c(Nc2nccc(N(C)c3ccc4c(C)n[nH]c4c3)n2)c1")
"27.1%"
>>> recordedmeasurement("COc1cc2ncnc(Nc3ccc4c(cnn4Cc4ccccc4)c3)c2cc1OC")
"29.1%"
>>> recordedmeasurement("CN(C)c1cc2c(Nc3ccc4c(cnn4Cc4ccccc4)c3)ncnc2cn1")
"9.11%"
>>> recordedmeasurement("FC(F)(F)c1ccc(-c2nn3ncccc3c2-c2ccnc(Nc3ccc4c(c3)OCCO4)n2)cc1")
"7.22%"
>>> recordedmeasurement("COc1cc(Nc2nccc(-c3cnn4ncccc34)n2)cc(OC)c1")
"11.3%"
>>> recordedmeasurement("CN(C)C(=O)O[C@H]1CN[C@H](C#Cc2cc3ncnc(Nc4ccc(OCc5cccc(F)c5)c(Cl)c4)c3s2)C1")
"0.74%"
>>> recordedmeasurement("CC(C)c1ccc2c(c1)NC(=O)/C2=N/Nc1ccc(S(N)(=O)=O)cc1")
"0.07%"
>>> recordedmeasurement("COc1cccc(-n2ncc3c(N/N=C/c4ccc(C)cc4)ncnc32)c1")
"0.44%"
